The following variants are listed with their measured self-cleavage values.
B1: CPEB3 Ribozyme (parent)
chain: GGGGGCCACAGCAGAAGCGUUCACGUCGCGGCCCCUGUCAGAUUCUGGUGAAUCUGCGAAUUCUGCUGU

Variants of: B1
Assay: self-cleavage, relative activity (ratio to wild type); higher = more cleavage; co-transcriptional

{"variant spec": "U21G U49C", "self-cleavage": 0.738}
{"variant spec": "G1U A42U", "self-cleavage": 0.0891}
{"variant spec": "C22A U36G", "self-cleavage": 0.161}
{"variant spec": "G2U C54G", "self-cleavage": 0.0751}

Problem: I would be grateful if you could share the reported self-cleavage for A13U C18U .
Result: 0.19

Problem: I would be grateful if you could share the reported self-cleavage for G1A C45U .
Result: 0.0709

Problem: I would be grateful if you could share the reported self-cleavage for U21C U43A .
Result: 0.771

Problem: I would be grateful if you could share the reported self-cleavage for C35A A42U .
Result: 0.19

Problem: I would be grateful if you could share the reported self-cleavage for U21G G37A .
Result: 0.193
